target: human GPR119 (Homo sapiens); experiment: GPR119 screening assay (LANCE cAMP, HEK 293 cells stably transfected with human GPR119); details: HEK 293 cells stably transfected with human GPR119, LANCE cAMP; read-out: GPR 119 cAMP EC50
Sequence (Q8TDV5 whole entry): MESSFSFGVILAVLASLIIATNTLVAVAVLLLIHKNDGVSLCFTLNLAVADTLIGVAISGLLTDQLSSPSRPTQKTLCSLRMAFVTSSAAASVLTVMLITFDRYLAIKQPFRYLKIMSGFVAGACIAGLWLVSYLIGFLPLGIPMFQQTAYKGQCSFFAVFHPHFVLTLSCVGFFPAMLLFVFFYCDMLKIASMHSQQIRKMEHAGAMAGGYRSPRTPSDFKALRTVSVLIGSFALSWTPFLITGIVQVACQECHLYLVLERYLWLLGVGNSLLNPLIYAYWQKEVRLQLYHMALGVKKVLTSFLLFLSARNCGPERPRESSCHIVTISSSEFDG
// values below are reported EC50
Reply numerically in nM, unit not repeated.

Solved entries (count: 3):
>>> value_observed("COc1cc(C(=O)N2CCC3(CC2)CN(Cc2ccccc2Cl)C3c2ccccc2)cc(OC)c1OC (stereo not drawn)")
1260
>>> value_observed("O=C(c1ccc2c(c1)OCCCO2)N1CCC2(CC1)CN(Cc1ccc(F)cc1F)C2c1ccc(F)cc1 (stereo not drawn)")
1300
>>> value_observed("COc1cc(C(=O)N2CCC3(CC2)CN(c2ccc(C)cc2)C3c2ccc(Cl)cc2)cc(OC)c1OC (stereo not drawn)")
1340

Query: Provide EC50 value for the following molecule: COc1cc(C(=O)N2CCC3(CC2)CN(c2ccccc2F)C3c2ccc(Cl)cc2)cc(OC)c1OC (stereo not drawn)
Reply: 516

Query: Provide EC50 value for the following molecule: COc1cc(C(=O)N2CCC3(CC2)CN(CC(C)C)C3c2ccccc2)cc(OC)c1OC (stereo not drawn)
Reply: 882

Query: Provide EC50 value for the following molecule: COc1cc(C(=O)N2CCC3(CC2)CN(Cc2ccc(F)cc2F)C3c2ccc(F)cc2)cc(OC)c1OC (stereo not drawn)
Reply: 1200

* * *

target: human Cav3.2 (Homo sapiens); construct: expressed in transfected cells; experiment: Ionworks screen for hCaV3.2 (IonWorks HT voltage clamp, T-type calcium current); format: cell-based; conditions: IonWorks (IW) screen
VALUE_TYPE: pIC50
Formally, pIC50 is defined as -log10 of the concentration c, with c in mol/L.

>>> value_observed("CC(C)CCN1CC2(CCN(C(=O)Nc3cc(F)cc(F)c3)CC2)C1c1ccc(F)cc1 (centres unmarked)")
7.15
>>> value_observed("CC(C)CCN1CC2(CCN(C(=O)NC34CC5CC(CC(C5)C3)C4)CC2)C1c1ccc(F)cc1 (centres unmarked)")
7.17
>>> value_observed("O=C(Nc1cc(F)cc(F)c1)N1CCC2(CC1)CN(c1ccc(F)c(Cl)c1)C2c1ccccn1 (single isomer, unassigned)")
7.22

Lab note: next molecule to report on.
Query: Provide pIC50 value for the following molecule: CC[C@H](C)[C@H](NC(=O)N1CCC2(CC1)CN(CCC(C)C)C2c1ccc(F)cc1)C(=O)OC (single isomer, unassigned)
Reply: 7.35

* * *

// values below are reported pIC50
biological target: human Cav3.2 (Homo sapiens); construct: expressed in transfected cells; experiment: Ionworks screen for hCaV3.2 (IonWorks HT voltage clamp, T-type calcium current); type: cell-based; details: IonWorks (IW) screen
Formally, pIC50 is defined as -log10 of the concentration c, with c in mol/L.

>>> value_observed("CC(C)N1CC2(CCN(C(=O)Nc3cccc(Cl)c3)CC2)C1c1ccc(Cl)cc1 (single isomer, unassigned)")
7.42

Query: Provide pIC50 value for the following compound: CC(C)N1CC2(CCN(C(=O)Nc3cccc(F)c3)CC2)C1c1ccc(Cl)cc1 (single isomer, unassigned)
Reply: 7.19

Query: Provide pIC50 value for the following compound: CC[C@H](C)[C@H](NC(=O)N1CCC2(CC1)CN(CCC(C)C)C2c1ccc(F)cc1)C(=O)OC (stereo partly shown)
Reply: 7.24

Query: Provide pIC50 value for the following compound: CC[C@H](C)[C@H](NC(=O)N1CCC2(CC1)CN(C(C)C)C2c1ccc(Br)cc1)C(=O)OC (single isomer, unassigned)
Reply: 7.62

* * *

target: human Cav3.2 (Homo sapiens, UniProt O95180); construct: expressed in transfected cells; experiment: Ionworks screen for hCaV3.2 (IonWorks HT voltage clamp, T-type calcium current); type: cell-based; settings: IonWorks (IW) screen
Sequence (O95180 whole entry): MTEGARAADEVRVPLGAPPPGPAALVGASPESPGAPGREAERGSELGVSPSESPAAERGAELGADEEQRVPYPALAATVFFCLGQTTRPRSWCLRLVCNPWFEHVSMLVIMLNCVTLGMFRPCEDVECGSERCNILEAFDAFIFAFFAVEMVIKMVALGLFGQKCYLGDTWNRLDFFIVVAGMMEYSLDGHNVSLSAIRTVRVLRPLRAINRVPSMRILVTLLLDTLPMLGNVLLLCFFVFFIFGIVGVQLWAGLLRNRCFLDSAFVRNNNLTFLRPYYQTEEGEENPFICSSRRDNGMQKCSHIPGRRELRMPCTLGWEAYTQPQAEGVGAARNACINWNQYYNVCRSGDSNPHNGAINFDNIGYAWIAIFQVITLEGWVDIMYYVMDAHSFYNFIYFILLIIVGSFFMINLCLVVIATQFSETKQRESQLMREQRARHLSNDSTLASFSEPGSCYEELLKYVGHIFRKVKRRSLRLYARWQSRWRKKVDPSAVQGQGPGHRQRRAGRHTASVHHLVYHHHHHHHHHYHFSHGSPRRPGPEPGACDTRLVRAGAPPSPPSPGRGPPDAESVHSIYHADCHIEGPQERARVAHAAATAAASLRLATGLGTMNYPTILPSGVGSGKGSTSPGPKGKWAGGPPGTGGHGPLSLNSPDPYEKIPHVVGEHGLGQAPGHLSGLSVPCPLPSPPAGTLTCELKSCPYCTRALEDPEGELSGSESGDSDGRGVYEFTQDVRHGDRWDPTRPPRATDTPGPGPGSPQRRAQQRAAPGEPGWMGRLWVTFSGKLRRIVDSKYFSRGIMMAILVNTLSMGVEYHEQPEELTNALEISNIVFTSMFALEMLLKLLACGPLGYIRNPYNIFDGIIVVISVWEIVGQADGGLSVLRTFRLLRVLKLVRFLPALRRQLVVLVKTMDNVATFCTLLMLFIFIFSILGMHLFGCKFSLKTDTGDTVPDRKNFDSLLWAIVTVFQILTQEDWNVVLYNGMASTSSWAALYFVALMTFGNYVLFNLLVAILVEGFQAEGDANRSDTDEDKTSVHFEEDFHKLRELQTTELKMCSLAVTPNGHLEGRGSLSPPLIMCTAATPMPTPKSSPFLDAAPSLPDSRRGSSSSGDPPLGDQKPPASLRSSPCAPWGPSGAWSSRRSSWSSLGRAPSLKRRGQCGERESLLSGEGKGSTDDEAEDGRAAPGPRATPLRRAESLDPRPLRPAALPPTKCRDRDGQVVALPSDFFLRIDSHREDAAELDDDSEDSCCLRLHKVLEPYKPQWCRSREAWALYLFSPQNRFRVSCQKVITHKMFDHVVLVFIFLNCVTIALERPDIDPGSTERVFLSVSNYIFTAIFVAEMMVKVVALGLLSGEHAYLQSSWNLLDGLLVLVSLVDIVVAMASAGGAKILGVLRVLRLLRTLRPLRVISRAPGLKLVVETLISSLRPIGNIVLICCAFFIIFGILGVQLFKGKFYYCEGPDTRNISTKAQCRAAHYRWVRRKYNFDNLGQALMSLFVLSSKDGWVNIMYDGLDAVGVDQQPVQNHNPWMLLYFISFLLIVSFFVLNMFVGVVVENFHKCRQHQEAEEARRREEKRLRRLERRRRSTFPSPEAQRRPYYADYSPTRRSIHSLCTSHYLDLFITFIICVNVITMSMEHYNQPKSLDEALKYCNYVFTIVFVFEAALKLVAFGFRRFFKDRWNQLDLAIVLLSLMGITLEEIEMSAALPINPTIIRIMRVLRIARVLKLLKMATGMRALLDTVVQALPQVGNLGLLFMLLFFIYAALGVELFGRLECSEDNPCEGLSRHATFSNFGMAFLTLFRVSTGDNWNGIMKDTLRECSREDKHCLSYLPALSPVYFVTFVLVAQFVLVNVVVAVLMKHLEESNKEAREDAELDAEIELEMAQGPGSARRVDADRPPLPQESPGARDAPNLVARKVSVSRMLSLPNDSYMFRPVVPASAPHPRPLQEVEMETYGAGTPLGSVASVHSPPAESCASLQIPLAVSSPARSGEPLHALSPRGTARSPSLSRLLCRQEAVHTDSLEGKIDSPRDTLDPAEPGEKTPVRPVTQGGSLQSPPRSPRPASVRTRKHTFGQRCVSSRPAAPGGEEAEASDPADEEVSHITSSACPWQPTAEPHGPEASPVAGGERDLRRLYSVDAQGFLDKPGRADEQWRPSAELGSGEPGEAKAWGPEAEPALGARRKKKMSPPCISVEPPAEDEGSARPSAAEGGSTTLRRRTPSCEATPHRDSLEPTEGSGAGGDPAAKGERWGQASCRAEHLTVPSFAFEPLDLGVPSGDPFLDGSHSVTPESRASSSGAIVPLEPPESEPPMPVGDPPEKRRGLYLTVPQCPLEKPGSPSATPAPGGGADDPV
// values below are reported IC50

>>> value_observed("CC(C)N1CC2(CCN(C(=O)Nc3cccc(C#N)c3)CC2)C1c1ccc(Cl)cc1 (single isomer, unassigned)")
"50 nM"

Query: Provide IC50 value for the following compound: CC[C@H](C)[C@H](NC(=O)N1CCC2(CC1)CN(C(C)C)C2c1ccc(Cl)cc1)C(=O)OC(C)(C)C (single isomer, unassigned)
Reply: 85 nM

Query: Provide IC50 value for the following compound: CC(C)N1CC2(CCN(C(=O)Nc3cc(F)cc(F)c3)CC2)C1c1ccc(Br)cc1 (single isomer, unassigned)
Reply: 44 nM

Query: Provide IC50 value for the following compound: CC(C)CCN1CC2(CCN(C(=O)Nc3cc(F)cc(F)c3)CC2)C1c1ccc(F)cc1 (single isomer, unassigned)
Reply: 76 nM

* * *

target: human Cav3.2 (Homo sapiens); construct: expressed in transfected cells; test: Ionworks screen for hCaV3.2 (IonWorks HT voltage clamp, T-type calcium current); type: cell-based; conditions: IonWorks (IW) screen
VALUE_TYPE: IC50 (nM)
Reply numerically in nM, unit not repeated.

Solved entries (count: 2):
>>> value_observed("CC[C@H](C)[C@H](NC(=O)N1CCC2(CC1)CN(C(C)C)C2c1ccc(-c2ccccc2)cc1)C(=O)OC (stereo partly drawn)")
76
>>> value_observed("CC(C)N1CC2(CCN(C(=O)Nc3cccc(F)c3)CC2)C1c1ccc(Br)cc1 (single isomer, unassigned)")
58

Lab note: next compound to report on.
Query: Provide IC50 value for the following compound: CC(C)N1CC2(CCN(C(=O)Nc3ccc(Cl)cc3)CC2)C1c1ccc(Cl)cc1 (single isomer, unassigned)
Reply: 49
